So I've got a bunch of binders here, and I need their pKd values.
- assayed-target: T1, EsCas13d, nuclease-dead (Eubacterium siraeum, UniProt B0MS50, R295A;H300A;R849A;H854A)
- T1 sequence: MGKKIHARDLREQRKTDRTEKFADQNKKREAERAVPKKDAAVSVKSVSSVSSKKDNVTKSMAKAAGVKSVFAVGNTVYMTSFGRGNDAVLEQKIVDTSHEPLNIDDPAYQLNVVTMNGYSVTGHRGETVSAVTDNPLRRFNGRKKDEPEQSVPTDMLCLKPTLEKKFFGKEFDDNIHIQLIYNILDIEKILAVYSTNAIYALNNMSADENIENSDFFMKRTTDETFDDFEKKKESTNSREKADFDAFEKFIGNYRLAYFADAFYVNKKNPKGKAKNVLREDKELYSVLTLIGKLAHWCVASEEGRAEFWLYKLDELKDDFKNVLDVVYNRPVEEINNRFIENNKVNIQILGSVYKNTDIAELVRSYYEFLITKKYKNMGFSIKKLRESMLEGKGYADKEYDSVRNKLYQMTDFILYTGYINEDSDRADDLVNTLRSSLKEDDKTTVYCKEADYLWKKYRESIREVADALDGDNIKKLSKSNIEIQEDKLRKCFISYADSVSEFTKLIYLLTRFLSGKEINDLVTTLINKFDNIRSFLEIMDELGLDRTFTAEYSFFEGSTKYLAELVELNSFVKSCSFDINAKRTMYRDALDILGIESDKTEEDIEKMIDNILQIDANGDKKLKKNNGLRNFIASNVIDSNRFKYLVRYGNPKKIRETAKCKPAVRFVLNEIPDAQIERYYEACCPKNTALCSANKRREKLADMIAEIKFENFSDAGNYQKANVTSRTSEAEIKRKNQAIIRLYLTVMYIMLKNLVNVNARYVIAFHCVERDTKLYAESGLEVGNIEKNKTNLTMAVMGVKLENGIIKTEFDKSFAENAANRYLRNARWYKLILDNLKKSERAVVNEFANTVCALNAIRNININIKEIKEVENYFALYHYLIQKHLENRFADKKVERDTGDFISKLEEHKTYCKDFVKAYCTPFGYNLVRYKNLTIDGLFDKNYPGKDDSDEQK
- measurement-description: crRNA (strand 1, pre-loaded); Mg2+; 40 mM Tris-HCl pH 7.5, 150 mM NaCl, 6 mM MgCl2, 1 mM DTT, 0.1% Tween-20, 0.2 mg/ml BSA; 25 C; 10 min per concentration, then washed
- particulars: tags: His6-TwinStrep-SUMO cleaved; N-terminal SNAP kept (SNAP-Surface 488); label: 3' end held by stalled T7 RNA polymerase
Note: pKd values are expressed as the negative base-10 logarithm of concentration in M.

Asked: Return pKd for the following binder: target 1 insA 3' of 13,insA 3' of 11 (mixed) RNA 1: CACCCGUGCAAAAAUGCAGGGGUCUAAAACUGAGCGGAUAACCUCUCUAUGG RNA 2: GGGAAUGGAUCCACAUCUACGAAUUCGUACCAUAGAGAGAGUAUAUCCGCUCACCGAGAUCGGAAGAGCACACGU
Given back: 8.41

Asked: Look up pKd of target 2 MT 5'PFS GGU 3'PFS ACG (mixed) RNA 1: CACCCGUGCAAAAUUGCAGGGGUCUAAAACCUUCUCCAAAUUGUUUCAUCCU RNA 2: GGGAAUGGAUCCACAUCUACGAAUUCGGUAGGAUGAAACAAUUUGGAGAAGACGAGAUCGGAAGAGCACACGU and report it.
Given back: 7.74

Asked: Return pKd for the following binder: target 1 MT 5'PFS GUC 3'PFS CCC (mixed) RNA 1: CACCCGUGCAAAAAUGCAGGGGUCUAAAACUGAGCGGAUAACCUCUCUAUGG RNA 2: GGGAAUGGAUCCACAUCUACGAAUUCGUCCCAUAGAGAGGUUAUCCGCUCACCCAGAUCGGAAGAGCACACGU
Given back: 7.72

Asked: Complete the entry with pKd for target 1 C6A,A20C (mixed) RNA 1: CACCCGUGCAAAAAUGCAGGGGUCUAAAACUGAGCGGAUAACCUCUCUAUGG RNA 2: GGGAAUGGAUCCACAUCUACGAAUUCGUACCCUAGAGAGGUUAUCAGCUCACCGAGAUCGGAAGAGCACACGU
Given back: 7.42
